experiment: log P by HPLC (EEC Directive 79/831 Annex V.A8); type: physicochemical; settings: [c] LC-MS, neutral range, pH 7.8, 0.001 molar aqueous ammonium hydrogencarbonate and acetonitrile
Quantity measured: log P

- Compound: "Cc1ccsc1CNC(=O)c1cccc(C2CCN(C(=O)Cn3nc(C(F)(F)F)cc3C)CC2)n1"
  Quantitative result: 3.34
- Compound: "Cc1cc(C(F)(F)F)nn1CC(=O)N1CCN(c2cccc(C(=O)OC3CCCc4ccccc43)n2)CC1 (stereo not drawn)"
  Quantitative result: 4.2
- Compound: "O=C(Oc1cccc2c1CCCC2)c1cccc(N2CCN(C(=O)Cn3nc(C(F)F)cc3C(F)F)CC2)n1"
  Quantitative result: 4.29
- Compound: "O=C(OC1C=CCCC1)c1cccc(N2CCN(C(=O)Cn3nc(C(F)F)cc3C(F)F)CC2)n1 (stereo not drawn)"
  Quantitative result: 3.6
- Compound: "O=C(Sc1cccs1)c1cccc(N2CCN(C(=O)Cn3nc(C(F)F)cc3C(F)F)CC2)n1"
  Quantitative result: 3.75
- Compound: "O=C(NC1CCc2ccccc21)c1cccc(C2CCN(C(=O)Cn3nc(C(F)F)cc3C(F)F)CC2)n1 (stereo not drawn)"
  Quantitative result: 3.44
- Compound: "Cc1cc(C(F)(F)F)nn1CC(=O)N1CCC(c2cccc(C(=O)NCc3ccccc3Cl)n2)CC1"
  Quantitative result: 3.52
- Compound: "CCCCCCCSC(=O)c1cccc(C2CCN(C(=O)Cn3nc(C(F)F)cc3C(F)F)CC2)n1"
  Quantitative result: 5.44
- Compound: "Cc1ccccc1CSC(=O)c1cccc(C2CCN(C(=O)Cn3nc(C(F)F)cc3C(F)F)CC2)n1"
  Quantitative result: 4.41
- Compound: "CCCCCCCNC(=O)c1cccc(C2CCN(C(=O)Cn3nc(C(F)(F)F)cc3C)CC2)n1"
  Quantitative result: 4.24
- Compound: "CN(C(=O)c1cccc(C2CCN(C(=O)Cn3nc(C(F)F)cc3C(F)F)CC2)n1)C1CCCCC1"
  Quantitative result: 3.08
- Compound: "O=C(Cn1nc(C(F)F)cc1C(F)F)N1CCC(c2cccc(C(=O)N3CCOc4ccccc43)n2)CC1"
  Quantitative result: 2.97

Values compiled from patent US8604040B2.
